target entity: α4β1 integrin receptor (Homo sapiens, UniProt P05556+P13612)
Construct: Ramos Cell Adhesion Assay (α4β1 Mediated Adhesion/VCAM-1); endogenous in cells; host or cells: Ramos cells
Sequence (P13612 34-1032): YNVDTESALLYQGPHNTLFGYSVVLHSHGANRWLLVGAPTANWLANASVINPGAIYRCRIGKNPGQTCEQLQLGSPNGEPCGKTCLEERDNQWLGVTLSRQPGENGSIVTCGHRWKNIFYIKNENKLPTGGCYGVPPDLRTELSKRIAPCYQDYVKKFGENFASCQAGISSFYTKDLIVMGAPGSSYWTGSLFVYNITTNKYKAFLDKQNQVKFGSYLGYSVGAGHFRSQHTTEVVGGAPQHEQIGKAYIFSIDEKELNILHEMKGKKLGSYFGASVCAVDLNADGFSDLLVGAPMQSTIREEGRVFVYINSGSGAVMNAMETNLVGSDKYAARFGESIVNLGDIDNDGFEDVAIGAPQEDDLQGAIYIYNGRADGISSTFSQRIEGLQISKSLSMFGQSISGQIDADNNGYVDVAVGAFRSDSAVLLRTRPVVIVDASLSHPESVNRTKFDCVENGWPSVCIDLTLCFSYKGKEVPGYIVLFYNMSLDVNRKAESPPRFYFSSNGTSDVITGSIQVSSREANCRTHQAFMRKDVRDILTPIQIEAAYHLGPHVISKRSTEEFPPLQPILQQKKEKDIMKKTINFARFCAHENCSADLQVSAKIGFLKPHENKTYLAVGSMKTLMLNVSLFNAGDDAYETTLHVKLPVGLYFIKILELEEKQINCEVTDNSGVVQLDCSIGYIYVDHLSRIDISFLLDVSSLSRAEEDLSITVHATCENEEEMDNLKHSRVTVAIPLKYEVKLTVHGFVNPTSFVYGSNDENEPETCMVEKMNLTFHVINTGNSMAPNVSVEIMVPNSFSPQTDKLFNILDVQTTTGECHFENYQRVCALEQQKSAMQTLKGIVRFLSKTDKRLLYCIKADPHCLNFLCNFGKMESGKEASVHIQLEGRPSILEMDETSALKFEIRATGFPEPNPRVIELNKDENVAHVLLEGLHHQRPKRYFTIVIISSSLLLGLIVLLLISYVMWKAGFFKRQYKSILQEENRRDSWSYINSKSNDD
Sequence (P05556 21-798): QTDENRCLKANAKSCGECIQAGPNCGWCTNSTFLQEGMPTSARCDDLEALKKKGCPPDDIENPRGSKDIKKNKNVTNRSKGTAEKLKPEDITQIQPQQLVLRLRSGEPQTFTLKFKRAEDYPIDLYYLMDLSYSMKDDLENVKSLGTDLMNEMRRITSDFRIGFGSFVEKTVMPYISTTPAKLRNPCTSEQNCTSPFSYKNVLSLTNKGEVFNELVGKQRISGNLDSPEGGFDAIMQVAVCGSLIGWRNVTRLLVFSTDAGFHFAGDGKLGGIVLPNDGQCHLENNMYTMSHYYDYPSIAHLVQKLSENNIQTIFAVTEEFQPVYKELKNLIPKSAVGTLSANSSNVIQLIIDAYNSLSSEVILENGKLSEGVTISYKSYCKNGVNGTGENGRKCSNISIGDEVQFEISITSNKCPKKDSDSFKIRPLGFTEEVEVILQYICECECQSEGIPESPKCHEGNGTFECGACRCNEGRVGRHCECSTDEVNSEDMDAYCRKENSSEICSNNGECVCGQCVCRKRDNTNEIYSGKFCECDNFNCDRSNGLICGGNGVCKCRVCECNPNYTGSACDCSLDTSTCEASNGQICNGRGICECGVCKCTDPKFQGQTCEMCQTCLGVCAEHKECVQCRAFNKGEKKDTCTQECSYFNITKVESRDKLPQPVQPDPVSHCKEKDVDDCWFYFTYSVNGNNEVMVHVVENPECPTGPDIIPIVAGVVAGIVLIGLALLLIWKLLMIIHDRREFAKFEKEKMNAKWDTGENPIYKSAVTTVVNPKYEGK
experiment summary: Ramos Cell Adhesion Assay (α4β1 Mediated Adhesion/VCAM-1)
Format: cell-based
condition parameters: Table III; read-out: Inhibition of Binding of Ramos Cells to Immobilized VCAM-1 IC50
measured metric: IC50 (nM)

compound: O=C(Nc1ccc(C[C@H](NC(=O)[C@@H]2C3CCC(C3)N2S(=O)(=O)c2ccccc2)C(=O)O)cc1)c1c(F)cccc1F (stereo partly drawn)
value unit: nM
IC50: 81
--
compound: O=C(Nc1ccc(C[C@H](NC(=O)C2C3CCC(CC3)N2S(=O)(=O)c2ccc(F)cc2)C(=O)O)cc1)c1c(Cl)cccc1Cl (stereo partly drawn)
value unit: nM
IC50: 146
--
compound: Cc1ccc(S(=O)(=O)N2C3CCC(CC3)C2C(=O)N[C@@H](Cc2ccc(NC(=O)c3ccccc3C(F)(F)F)cc2)C(=O)O)cc1 (stereo partly drawn)
value unit: nM
IC50: 104

###

target entity: α4β1 integrin receptor (Homo sapiens, UniProt P05556+P13612)
Construct: Ramos Cell Adhesion Assay (α4β1 Mediated Adhesion/VCAM-1); endogenous in cells; host or cells: Ramos cells
experiment summary: Ramos Cell Adhesion Assay (α4β1 Mediated Adhesion/VCAM-1)
Type: cell-based
condition parameters: Table III; read-out: Inhibition of Binding of Ramos Cells to Immobilized VCAM-1 IC50
pIC50: −log10 of the molar value.
measured metric: pIC50

molecule: CC(C)(C)OC(=O)N1CCC(C(=O)Nc2ccc(C[C@H](NC(=O)C3C4CCC(CC4)N3S(=O)(=O)c3ccccc3)C(=O)O)cc2)CC1 (mixture of isomers) [Cpd 53]
experimental result: 7.17

a. O=C(Nc1ccc(C[C@H](NC(=O)C2C3CCC(CC3)N2S(=O)(=O)c2ccccc2)C(=O)O)cc1)c1c(F)cccc1F (stereo partly drawn) [Cpd 15]
b. Cc1ccc(S(=O)(=O)N2C3CCC(CC3)C2C(=O)N[C@@H](Cc2ccc(NC(=O)Cc3c(Cl)cccc3Cl)cc2)C(=O)O)cc1 (stereo partly drawn) [Cpd 27]
Larger number for pIC50: a , or b ? Record your answer as the label of the chosen record.
a
